- ASSAY_SYSTEM: KRas G12D/Q61H double mutant (Homo sapiens (Human), UniProt P01116, G12D/Q61H)
- Sequence (P01116-2 other isoform, or with tags, fused parts or gaps G12D/Q61H): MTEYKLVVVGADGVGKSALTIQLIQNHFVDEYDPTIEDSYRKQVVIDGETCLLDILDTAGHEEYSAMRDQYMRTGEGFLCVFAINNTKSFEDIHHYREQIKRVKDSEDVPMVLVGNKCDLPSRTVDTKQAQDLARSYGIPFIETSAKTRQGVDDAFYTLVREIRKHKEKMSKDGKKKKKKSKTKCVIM
- EXPERIMENTAL_DETAILS: Ras GTP binding domain inhibition assay (labeled GTP)
- RUN_CONDITIONS: at 20 μM; read-out: KRas G12D Q61H % Inh.

COMPOUND: Oc1nc(-c2ccccn2)nc2c(-c3ccccc3F)csc12 [drawing 3740]
inhibition at 20 µM: 51 to 75%

COMPOUND: Oc1nc(-c2ccccn2)nc2c(-c3cnc4ccccc4c3)csc12 [drawing 3780]
inhibition at 20 µM: 25 to 50%

COMPOUND: O=S1(=O)CCN(Cc2cccc(-c3csc4c(O)nc(-c5ccccn5)nc34)c2)CC1 [drawing 3736]
inhibition at 20 µM: 51 to 75%

COMPOUND: COc1ccnc(-c2nc(O)c3c(CN)csc3n2)c1
inhibition at 20 µM: 0%

COMPOUND: Cc1nn(C(C)C)cc1-c1csc2c(O)nc(-c3ccccn3)nc12 [drawing 3825]
inhibition at 20 µM: 51 to 75%

COMPOUND: Oc1nc(-c2ccccn2)nc2c(-c3ccccc3Cl)csc12 [drawing 3626]
inhibition at 20 µM: 51 to 75%

COMPOUND: Cc1sc2c(O)nc(-c3ccccn3)nc2c1C(=O)N1CCN(Cc2cccc(O)c2)CC1 [drawing 3829]
inhibition at 20 µM: 51 to 75%

COMPOUND: Oc1nc(-c2ccccn2)nc2c(-c3cc(C(F)(F)F)ccc3F)csc12 [drawing 3783]
inhibition at 20 µM: 1 to 25%

COMPOUND: COc1cnc(C2(N)CCCC2)nc1O [drawing 3809]
inhibition at 20 µM: 1 to 25%

COMPOUND: O=C(c1csc2c(O)nc(-c3ccccn3)nc12)N1CCOC(c2nccs2)C1 (stereo not shown) [drawing 3631]
inhibition at 20 µM: 25 to 50%

COMPOUND: Oc1nc(-c2ccccn2)nc2c(C3CCC3)csc12 [drawing 3797]
inhibition at 20 µM: 51 to 75%

COMPOUND: COC(=O)c1csc2nc(-c3ccccn3)nc(N)c12 [drawing 3767]
inhibition at 20 µM: 25 to 50%

COMPOUND: Cc1sc2c(O)nc(-c3ccccn3)nc2c1C(=O)N1CCN(c2ccccc2)CC1 [drawing 3827]
inhibition at 20 µM: 25 to 50%

COMPOUND: O=C(c1csc2c(O)nc(-c3ccccn3)nc12)N1CCN(Cc2ccccc2)CC1 [drawing 3651]
inhibition at 20 µM: 25 to 50%

COMPOUND: CC(C(=O)Nc1nc(-c2ccccn2)nc2sccc12)c1ccc(C#N)cc1 (stereo not shown) [drawing 3687]
inhibition at 20 µM: 1 to 25%

COMPOUND: COc1ccccc1C1CN(C(=O)c2csc3c(O)nc(-c4ccccn4)nc23)CCO1 (stereo not shown) [drawing 3656]
inhibition at 20 µM: 51 to 75%

COMPOUND: COc1ccccc1-c1csc2c(O)nc(-c3ccccn3)nc12 [drawing 3742]
inhibition at 20 µM: 25 to 50%

COMPOUND: Cc1cncc(-c2csc3c(O)nc(-c4ccccn4)nc23)c1 [drawing 3785]
inhibition at 20 µM: 25 to 50%

COMPOUND: O=C(NCCc1cncnc1)c1csc2nc(-c3ccccn3)nc(N3CCOCC3)c12 [drawing 3673]
inhibition at 20 µM: 1 to 25%

Reference source: patent US10940139B2
